The reported measurements were obtained from ChEMBL document CHEMBL4007481.

Documented Ratio across a set of molecules
- Test system: Bacillus subtilis subsp. spizizenii ATCC 6633 = JCM 2499
- assay summary: Inhibition of FtsZ in Bacillus subtilis ATCC 6633 assessed as ratio of diameter of zone inhibition of test compound to diameter of zone inhibition of tetracycline at 100 ug per disc after 18 to 24 hrs by paper disc agar diffusion assay
Format: numeric value only, no unit, no commentary.

Fill in the recorded Ratio for this molecule, with Bacillus subtilis subsp. spizizenii ATCC 6633 = JCM 2499 as test system: "NC(=O)c1c(F)ccc(OCC(=O)OCCOc2ccccc2)c1F"
0.18

Lab note: need Ratio for "NC(=O)c1c(F)ccc(OCC(=O)Oc2ccccc2)c1F" on Bacillus subtilis subsp. spizizenii ATCC 6633 = JCM 2499, anyone have it?
0.19

Notebook entry, Bacillus subtilis subsp. spizizenii ATCC 6633 = JCM 2499 assay: Ratio of "NC(=O)c1c(F)ccc(OCC(=O)OCCOc2ccc(F)cc2)c1F" = ?
0.18

Observed Ratio on Bacillus subtilis subsp. spizizenii ATCC 6633 = JCM 2499 for "NC(=O)c1c(F)ccc(OCCCOc2c(Cl)cc(Cl)c3cccnc23)c1F" , please.
0.1

Lookup: Ratio / Bacillus subtilis subsp. spizizenii ATCC 6633 = JCM 2499 / "NC(=O)c1c(F)ccc(OCC(=O)Nc2ccccc2)c1F"
0.1

Tell me reported Ratio for "N#Cc1ccc(OCCOC(=O)COc2ccc(F)c(C(N)=O)c2F)cc1" , tested with Bacillus subtilis subsp. spizizenii ATCC 6633 = JCM 2499.
0.11
